Values compiled from the NIST ThermoML archive (doi:10.1021/je060139a).

- protocolText: refractive index (Na D-line) (dimensionless); xn = mol fraction of the nth substance listed
- condition: 318.15 K; 100.5 kPa; Liquid; Standard Abbe refractometry; x1 = 0.35
experimentalEndpoint: refractive index

CCOC(=O)CC(C)C [ethyl 3-methylbutanoate] + CCO; 1.37068
CCOC(=O)CC(C)=O [ethyl 3-oxobutanoate] + CCO; 1.3823
CCC(=O)OCc1ccccc1 [benzyl propanoate] + CCO; 1.4325
COC(=O)c1ccccc1 [methyl benzoate] + CCO; 1.43518
CC(=O)OCc1ccccc1 [benzyl ethanoate] + CCO; 1.43155
CCOC(=O)c1ccccc1O [ethyl 2-hydroxybenzoate] + CCO; 1.44456

###

- protocolText: xn = mol fraction of the nth substance listed
- condition: 288.15 K, Wilhelmy plate method, x1 = 0.65
experimentalEndpoint: surface tension liquid-gas (mN/m)

CCOC(=O)CC(C)=O [ethyl 3-oxobutanoate] + CCO; 30.02
COC(=O)c1ccccc1 [methyl benzoate] + CCO; 32.29
CCOC(=O)c1ccccc1O [ethyl 2-hydroxybenzoate] + CCO; 31
CC(=O)OCc1ccccc1 [benzyl ethanoate] + CCO; 32.2
CCOC(=O)CC(C)C [ethyl 3-methylbutanoate] + CCO; 24.04
CCC(=O)OCc1ccccc1 [benzyl propanoate] + CCO; 31.06

###

- protocolText: refractive index (Na D-line) (dimensionless); xn = mol fraction of the nth substance listed
- condition: 288.15 K; 100.5 kPa; Liquid; Standard Abbe refractometry; x1 = 0.05
experimentalEndpoint: refractive index

CCC(=O)OCc1ccccc1 [benzyl propanoate] + CCO; 1.38108
COC(=O)c1ccccc1 [methyl benzoate] + CCO; 1.38013
CCOC(=O)CC(C)=O [ethyl 3-oxobutanoate] + CCO; 1.3696
CCOC(=O)c1ccccc1O [ethyl 2-hydroxybenzoate] + CCO; 1.38326
CC(=O)OCc1ccccc1 [benzyl ethanoate] + CCO; 1.38022
CCOC(=O)CC(C)C [ethyl 3-methylbutanoate] + CCO; 1.3677

###

- protocolText: xn = mol fraction of the nth substance listed
- condition: 308.15 K, Wilhelmy plate method, x1 = 0.2
experimentalEndpoint: surface tension liquid-gas (mN/m)

CCC(=O)OCc1ccccc1 [benzyl propanoate] + CCO; 24.3
CC(=O)OCc1ccccc1 [benzyl ethanoate] + CCO; 24.23
CCOC(=O)CC(C)=O [ethyl 3-oxobutanoate] + CCO; 23.42
CCOC(=O)c1ccccc1O [ethyl 2-hydroxybenzoate] + CCO; 24.13
COC(=O)c1ccccc1 [methyl benzoate] + CCO; 24.28
CCOC(=O)CC(C)C [ethyl 3-methylbutanoate] + CCO; 21.76

###

- protocolText: refractive index (Na D-line) (dimensionless); xn = mol fraction of the nth substance listed
- condition: 298.18 K; 100.5 kPa; Liquid; Standard Abbe refractometry; x1 = 0.45
experimentalEndpoint: refractive index

COC(=O)c1ccccc1 [methyl benzoate] + CCO; 1.46
CC(=O)OCc1ccccc1 [benzyl ethanoate] + CCO; 1.4542
CCOC(=O)CC(C)=O [ethyl 3-oxobutanoate] + CCO; 1.3965
CCC(=O)OCc1ccccc1 [benzyl propanoate] + CCO; 1.45408
CCOC(=O)CC(C)C [ethyl 3-methylbutanoate] + CCO; 1.38291
CCOC(=O)c1ccccc1O [ethyl 2-hydroxybenzoate] + CCO; 1.46918

###

- protocolText: xn = mol fraction of the nth substance listed
- condition: 288.15 K, Wilhelmy plate method, x1 = 0.95
experimentalEndpoint: surface tension liquid-gas (mN/m)

CCC(=O)OCc1ccccc1 [benzyl propanoate] + CCO; 35.2
CCOC(=O)c1ccccc1O [ethyl 2-hydroxybenzoate] + CCO; 36.4
CC(=O)OCc1ccccc1 [benzyl ethanoate] + CCO; 36.9
CCOC(=O)CC(C)=O [ethyl 3-oxobutanoate] + CCO; 32.91

[a] COC(=O)c1ccccc1 [methyl benzoate] + CCO
[b] CCOC(=O)CC(C)C [ethyl 3-methylbutanoate] + CCO
Ask: Between a and b , whose recorded surface tension liquid-gas is greater? // return label of chosen record
Result: a
(a: 37.6 mN/m, b: 24.35 mN/m)

###

- protocolText: xn = mol fraction of the nth substance listed
- condition: 318.15 K, Wilhelmy plate method, x1 = 0.05
experimentalEndpoint: surface tension liquid-gas (mN/m)

COC(=O)c1ccccc1 [methyl benzoate] + CCO; 21.2
CC(=O)OCc1ccccc1 [benzyl ethanoate] + CCO; 21.3
CCOC(=O)CC(C)=O [ethyl 3-oxobutanoate] + CCO; 20.98
CCOC(=O)c1ccccc1O [ethyl 2-hydroxybenzoate] + CCO; 21.3
CCOC(=O)CC(C)C [ethyl 3-methylbutanoate] + CCO; 20.65
CCC(=O)OCc1ccccc1 [benzyl propanoate] + CCO; 21.34

###

- protocolText: refractive index (Na D-line) (dimensionless); xn = mol fraction of the nth substance listed
- condition: 308.15 K; 100.5 kPa; Liquid; Standard Abbe refractometry; x1 = 0.4
experimentalEndpoint: refractive index

CCOC(=O)CC(C)C [ethyl 3-methylbutanoate] + CCO; 1.3768
CCC(=O)OCc1ccccc1 [benzyl propanoate] + CCO; 1.4437
CC(=O)OCc1ccccc1 [benzyl ethanoate] + CCO; 1.44323
COC(=O)c1ccccc1 [methyl benzoate] + CCO; 1.44784
CCOC(=O)CC(C)=O [ethyl 3-oxobutanoate] + CCO; 1.3896
CCOC(=O)c1ccccc1O [ethyl 2-hydroxybenzoate] + CCO; 1.45719

###

- protocolText: xn = mol fraction of the nth substance listed
- condition: 298.18 K, Wilhelmy plate method, x1 = 0.65
experimentalEndpoint: surface tension liquid-gas (mN/m)

COC(=O)c1ccccc1 [methyl benzoate] + CCO; 31.05
CC(=O)OCc1ccccc1 [benzyl ethanoate] + CCO; 31.02
CCOC(=O)c1ccccc1O [ethyl 2-hydroxybenzoate] + CCO; 29.9
CCC(=O)OCc1ccccc1 [benzyl propanoate] + CCO; 29.97
CCOC(=O)CC(C)C [ethyl 3-methylbutanoate] + CCO; 23.15
CCOC(=O)CC(C)=O [ethyl 3-oxobutanoate] + CCO; 29.04

###

- protocolText: xn = mol fraction of the nth substance listed
- condition: 318.15 K, Wilhelmy plate method, x1 = 0.55
experimentalEndpoint: surface tension liquid-gas (mN/m)

CC(=O)OCc1ccccc1 [benzyl ethanoate] + CCO; 27.56
CCC(=O)OCc1ccccc1 [benzyl propanoate] + CCO; 26.78
CCOC(=O)CC(C)C [ethyl 3-methylbutanoate] + CCO; 21.17
CCOC(=O)c1ccccc1O [ethyl 2-hydroxybenzoate] + CCO; 26.8
COC(=O)c1ccccc1 [methyl benzoate] + CCO; 27.6
CCOC(=O)CC(C)=O [ethyl 3-oxobutanoate] + CCO; 25.8

###

- protocolText: refractive index (Na D-line) (dimensionless); xn = mol fraction of the nth substance listed
- condition: 298.18 K; 100.5 kPa; Liquid; Standard Abbe refractometry; x1 = 0.05
experimentalEndpoint: refractive index

CCC(=O)OCc1ccccc1 [benzyl propanoate] + CCO; 1.37691
CCOC(=O)c1ccccc1O [ethyl 2-hydroxybenzoate] + CCO; 1.37908
CCOC(=O)CC(C)=O [ethyl 3-oxobutanoate] + CCO; 1.3654
COC(=O)c1ccccc1 [methyl benzoate] + CCO; 1.37591
CC(=O)OCc1ccccc1 [benzyl ethanoate] + CCO; 1.37602
CCOC(=O)CC(C)C [ethyl 3-methylbutanoate] + CCO; 1.36363

###

- protocolText: refractive index (Na D-line) (dimensionless); xn = mol fraction of the nth substance listed
- condition: 318.15 K; 100.5 kPa; Liquid; Standard Abbe refractometry; x1 = 0.7
experimentalEndpoint: refractive index

CC(=O)OCc1ccccc1 [benzyl ethanoate] + CCO; 1.47036
CCOC(=O)CC(C)=O [ethyl 3-oxobutanoate] + CCO; 1.3989
CCOC(=O)CC(C)C [ethyl 3-methylbutanoate] + CCO; 1.37964
CCOC(=O)c1ccccc1O [ethyl 2-hydroxybenzoate] + CCO; 1.48874
CCC(=O)OCc1ccccc1 [benzyl propanoate] + CCO; 1.46833
COC(=O)c1ccccc1 [methyl benzoate] + CCO; 1.48039

###

- protocolText: refractive index (Na D-line) (dimensionless); xn = mol fraction of the nth substance listed
- condition: 318.15 K; 100.5 kPa; Liquid; Standard Abbe refractometry; x1 = 0.75
experimentalEndpoint: refractive index

CCC(=O)OCc1ccccc1 [benzyl propanoate] + CCO; 1.47188
CCOC(=O)CC(C)C [ethyl 3-methylbutanoate] + CCO; 1.38056
CCOC(=O)c1ccccc1O [ethyl 2-hydroxybenzoate] + CCO; 1.49321
COC(=O)c1ccccc1 [methyl benzoate] + CCO; 1.48515
CC(=O)OCc1ccccc1 [benzyl ethanoate] + CCO; 1.47434
CCOC(=O)CC(C)=O [ethyl 3-oxobutanoate] + CCO; 1.4007

###

- protocolText: refractive index (Na D-line) (dimensionless); xn = mol fraction of the nth substance listed
- condition: 288.15 K; 100.5 kPa; Liquid; Standard Abbe refractometry; x1 = 0.4
experimentalEndpoint: refractive index

CCOC(=O)c1ccccc1O [ethyl 2-hydroxybenzoate] + CCO; 1.46635
CCC(=O)OCc1ccccc1 [benzyl propanoate] + CCO; 1.45248
CCOC(=O)CC(C)=O [ethyl 3-oxobutanoate] + CCO; 1.3981
COC(=O)c1ccccc1 [methyl benzoate] + CCO; 1.45703
CCOC(=O)CC(C)C [ethyl 3-methylbutanoate] + CCO; 1.38587
CC(=O)OCc1ccccc1 [benzyl ethanoate] + CCO; 1.45211
